test system: OVCAR-5; test: NCI tumour cell line growth inhibition, 48 h
Active and inactive are the calls of the source. Rule as the data show it: active = GI50 up to about 1.1 µM and inactive = higher.
property label: GI50

Give OVCAR-5 GI50 for "O=C(Nc1ccccc1)N1C(c2ccccc2)=N[C@@H](c2ccccc2)[C@@H]1c1ccccc1"
19.3 µM (inactive)

Give OVCAR-5 GI50 for "CCOC(=O)C1(C(=O)OCC)C[C@]23OCCC(=O)[C@H]2[C@H]2C(=O)OC(C)(C)O[C@]23C1"
> 100 µM (inactive)

Give OVCAR-5 GI50 for "Nc1n[n+]([O-])c2cnccc2[n+]1[O-]"
52 µM (inactive)

Give OVCAR-5 GI50 for "CCCN(CCC)c1c([N+](=O)[O-])cc(C(=O)N(CC)CC)cc1[N+](=O)[O-]"
30.9 µM (inactive)

Give OVCAR-5 GI50 for "CC(C)(C)n1c(=O)n2n(c1=O)Cc1cccc3cccc(c13)C2"
17 µM (inactive)

Give OVCAR-5 GI50 for "Cc1cc(C)c(NC(=O)/C=C/c2ccccc2)c(C)c1"
> 100 µM (inactive)

Give OVCAR-5 GI50 for "CCCc1c(-c2ccccc2)[nH]c2ccccc2c1=O"
45 µM (inactive)

Give OVCAR-5 GI50 for "COc1ccc(Nc2nc3cc(C(F)(F)F)ccc3nc2-c2ccccc2)cc1OC"
> 100 µM (inactive)

Give OVCAR-5 GI50 for "C(=C\N1CCCCC1)/c1nnnn1-c1ccccc1"
42.1 µM (inactive)

Give OVCAR-5 GI50 for "O=c1c(Sc2c(O)c3ccccc3c3ccccc3c2=O)c(O)c2ccccc2c2ccccc12"
53.2 µM (inactive)

Give OVCAR-5 GI50 for "N#Cc1ccc(-n2c3ccccc3c3ccc4c(c32)C(=O)C=CC4=O)cc1"
17.8 µM (inactive)

Give OVCAR-5 GI50 for "Cc1cc2c(cc1C)C(=O)/C(=C/c1ccccc1C(=O)O)C2"
23.6 µM (inactive)

Give OVCAR-5 GI50 for "CC1(C)[C@H]2Cc3cc(-c4cc5c(cn4)[C@@H]4C[C@H]([C@@H]5[C@@H]5c6cc(-c7cc8c(cn7)[C@@H]7C[C@H](C8)C7(C)C)ncc6[C@@H]6C[C@H]5C6(C)C)C4(C)C)ncc3[C@@H]1C2"
> 100 µM (inactive)

Give OVCAR-5 GI50 for "CN1CCN(c2cc3nc4cc(O)cc(O)c4c(O)c3cc2N)CC1"
23.9 µM (inactive)

Give OVCAR-5 GI50 for "O=C(O)C(=Cc1ccnc2ccccc12)C(=O)O"
> 100 µM (inactive)

Give OVCAR-5 GI50 for "Cc1nc(-c2ccccc2)cn2c1nc1ccccc12"
> 31.6 µM (inactive)

Give OVCAR-5 GI50 for "Nc1nc(SCC(=O)c2ccccc2)c2[nH]cnc2n1"
> 100 µM (inactive)

Give OVCAR-5 GI50 for "CCOC(=O)c1cc2c(OC)cc(OC)cc2oc1=O"
> 100 µM (inactive)

Give OVCAR-5 GI50 for "N#Cc1nc(-c2cccc(-c3nc(C#N)c(N)o3)n2)oc1N"
> 100 µM (inactive)

Give OVCAR-5 GI50 for "N#Cc1nc(C#N)c(NC(=O)c2ccccc2C(=O)O)[nH]1"
> 100 µM (inactive)

Give OVCAR-5 GI50 for "COc1cc(=O)n2c3ccccc3n(C)c2c1C#N"
> 100 µM (inactive)

Give OVCAR-5 GI50 for "NCc1cc(O)c(O)c(O)c1"
> 100 µM (inactive)

Give OVCAR-5 GI50 for "c1ccc(Nc2nnc(-c3nsc4ccccc34)o2)cc1"
> 100 µM (inactive)

Give OVCAR-5 GI50 for CCCCC1Cc2cc(OC)ccc2-c2nc3cc(OC)ccc3n21.CCCCC1Cc2cc(OC)ccc2-c2nc3ccc(OC)cc3n21 (stereo unspecified)
16.9 µM (inactive)

Give OVCAR-5 GI50 for "COc1ccc(/C=C/c2sc3ccccc3[n+]2CCCCI)cc1OC"
> 10 µM (inactive)

Give OVCAR-5 GI50 for CCOc1cc(NC(C)=O)ccc1C(=O)NN1C(=O)C(Oc2ccccc2)C1c1ccccc1 (stereo unspecified)
> 100 µM (inactive)

Give OVCAR-5 GI50 for "C/C(=N\Nc1nc2ccccc2s1)c1cccc[n+]1[O-]"
2.33 µM (inactive)

Give OVCAR-5 GI50 for "N#Cc1c(-c2cccc(Cl)c2)cc(-c2ccc(Cl)cc2)nc1N"
21.7 µM (inactive)

Give OVCAR-5 GI50 for "NC1c2ccccc2Nc2ccccc21"
5.04 µM (inactive)

Give OVCAR-5 GI50 for "C[C@]12CC[C@H]3[C@@H](CC=C4C[C@@H](O)CC[C@@]43C)[C@@H]1C/C(=C\c1ccc([N+](=O)[O-])cc1)[C@@H]2O"
25.2 µM (inactive)

Give OVCAR-5 GI50 for "CCOC(=O)NC(=O)c1cn(CCN2CCN(C(=O)CCCCCCCCCCC(=O)N3CCN(CCn4cc(C(=O)NC(=O)OCC)c(=O)[nH]c4=O)CC3)CC2)c(=O)[nH]c1=O"
51.6 µM (inactive)

Give OVCAR-5 GI50 for "Cn1cc(-c2n[nH]c(-c3ccc(Cl)cc3)nc2=O)c2ccccc21"
4.34 µM (inactive)

Give OVCAR-5 GI50 for "Oc1cc(Cl)cc2cc(Cl)cnc12"
17.5 µM (inactive)

Give OVCAR-5 GI50 for C/C(=N\NS(=O)(=O)c1ccc(C)cc1)C(CN1CCCCC1)C(c1ccccc1)c1c(O)c2ccccc2oc1=O (stereo unspecified)
> 100 µM (inactive)

Give OVCAR-5 GI50 for "O=C(O)c1ccccc1C(=O)NCC1S(=O)(=O)OCCOS1(=O)=O"
> 100 µM (inactive)

Give OVCAR-5 GI50 for CCOP(=O)(OCC)C(C(=O)OC)C(=O)C(=O)Nc1ccc(Cl)cc1Cl (stereo unspecified)
> 100 µM (inactive)

Give OVCAR-5 GI50 for "CC(C)(C)c1cc(OCc2nnc3sc(-c4ccc(Cl)cc4)nn23)c(Cl)cc1OCc1nnc2sc(-c3ccc(Cl)cc3)nn12"
29.7 µM (inactive)

Give OVCAR-5 GI50 for "O=C(/C=C\c1cccc2ccccc12)c1cccc2ccccc12"
> 10 µM (inactive)

Give OVCAR-5 GI50 for "CCOC(=O)c1nnc2c(C#N)c(-c3ccccc3)c(C)n2c1N"
> 100 µM (inactive)

Give OVCAR-5 GI50 for "COC1=CC(c2ccc(Br)[nH]2)=N/C1=C/NCC(C)C"
2.11 µM (inactive)

Give OVCAR-5 GI50 for "C/C(=C\c1ccccc1)C(=O)CCN1CCOCC1"
18.9 µM (inactive)
